EXPERIMENTAL DETAILS: Lipophilicity, log P of the compound
Format: physicochemical
EXPERIMENTAL SETUP: octanol/water
Could you please report measured logP for the items listed next?
Answers are plain numbers.

>>> reported_measurement("CCN(CC)CCOc1ccc(C(=O)N2C/C(=C\\c3ccccc3)C(=O)/C(=C/c3ccccc3)C2)cc1.Cl")
7
>>> reported_measurement("Cl.O=C1/C(=C/c2ccccc2)CNC/C1=C\\c1ccccc1")
5.7
>>> reported_measurement("CCN(CC)CCOc1ccc(C(=O)N2C/C(=C\\c3ccc(Cl)cc3)C(=O)/C(=C/c3ccc(Cl)cc3)C2)cc1.Cl")
8
>>> reported_measurement("CN(C)CCOc1ccc(C(=O)N2C/C(=C\\c3ccccc3)C(=O)/C(=C/c3ccccc3)C2)cc1.Cl")
5.9

Could you now consider this next compound?
logP lookup needed for Cc1ccc(/C=C2\CNC/C(=C\c3ccc(C)cc3)C2=O)cc1 , thanks.
6.6

====

Could you please report measured logP for the items listed next?
EXPERIMENTAL DETAILS: Lipophilicity, log P of the compound
Type: physicochemical
EXPERIMENTAL SETUP: octanol/water; read-out: logP
Give bare numbers.

State the recorded logP for every item in the following list.
1. Cl.O=C1/C(=C/c2ccc(Cl)cc2)CN(C(=O)c2ccc(OCCN3CCOCC3)cc2)C/C1=C\c1ccc(Cl)cc1
2. O=C1/C(=C/c2ccccc2)CN(C(=O)c2ccccc2)C/C1=C\c1ccccc1

[6.4, 5.5]

State the recorded logP for every item in the following list.
1. CC[N+](C)(CC)CCOc1ccc(C(=O)N2C/C(=C\c3ccc([N+](=O)[O-])cc3)C(=O)/C(=C/c3ccc([N+](=O)[O-])cc3)C2)cc1.[I-]
2. CCN(CC)CCOc1ccc(C(=O)O)cc1.Cl

1. 1.8
2. 2.9

====

Tested on: Mus musculus
EXPERIMENTAL DETAILS: Neurotoxicity in mouse at 300 mg/kg after 4 hrs
Assay type: toxicity, organism-based
Set-up: dose 300 mg/kg
EXPERIMENTAL SETUP: in vivo
REPORTED METRIC: Activity

The examples below pair each entry with its known result.
>>> reported_measurement("CN(C)CCOc1ccc(C(=O)N2C/C(=C\\c3ccccc3)C(=O)/C(=C/c3ccccc3)C2)cc1.Cl")
"Non-toxic"
>>> reported_measurement("CC[N+](C)(CC)CCOc1ccc(C(=O)N2C/C(=C\\c3ccc(Cl)cc3)C(=O)/C(=C/c3ccc(Cl)cc3)C2)cc1.[I-]")
"Non-toxic"
>>> reported_measurement("CCN(CC)CCOc1ccc(C(=O)N2C/C(=C\\c3ccccc3)C(=O)/C(=C/c3ccccc3)C2)cc1.Cl")
"Non-toxic"
>>> reported_measurement("Cc1ccc(/C=C2\\CN(C(=O)c3ccc(OCCN4CCOCC4)cc3)C/C(=C\\c3ccc(C)cc3)C2=O)cc1.Cl")
"Non-toxic"
>>> reported_measurement("Cl.O=C1/C(=C/c2ccc([N+](=O)[O-])cc2)CN(C(=O)c2ccc(OCCN3CCOCC3)cc2)C/C1=C\\c1ccc([N+](=O)[O-])cc1")
"Non-toxic"
>>> reported_measurement("Cc1ccc(/C=C2\\CN(C(=O)c3ccc(OCCN4CCCCC4)cc3)C/C(=C\\c3ccc(C)cc3)C2=O)cc1.Cl")
"Non-toxic"
>>> reported_measurement("CN(C)CCOc1ccc(C(=O)N2C/C(=C\\c3ccc(Cl)cc3)C(=O)/C(=C/c3ccc(Cl)cc3)C2)cc1.Cl")
"Non-toxic"
>>> reported_measurement("CC[N+](C)(CC)CCOc1ccc(C(=O)N2C/C(=C\\c3ccc([N+](=O)[O-])cc3)C(=O)/C(=C/c3ccc([N+](=O)[O-])cc3)C2)cc1.[I-]")
"Toxic"
>>> reported_measurement("CC[N+](C)(CC)CCOc1ccc(C(=O)N2C/C(=C\\c3ccc(C)cc3)C(=O)/C(=C/c3ccc(C)cc3)C2)cc1.[I-]")
"Toxic"
>>> reported_measurement("Cc1ccc(/C=C2\\CNC/C(=C\\c3ccc(C)cc3)C2=O)cc1")
"Non-toxic"

State the recorded Activity for every item in the following list.
1. CCN(CC)CCOc1ccc(C(=O)O)cc1.Cl
2. CCN(CC)CCOc1ccc(C(=O)N2C/C(=C\c3ccc(Cl)cc3)C(=O)/C(=C/c3ccc(Cl)cc3)C2)cc1.Cl
3. CC[N+](C)(CC)CCOc1ccc(C(=O)N2C/C(=C\c3ccccc3)C(=O)/C(=C/c3ccccc3)C2)cc1.[I-]

1: Non-toxic; 2: Non-toxic; 3: Toxic
